# SYSTEM UNDER TEST: T1, human ACTH 1-39 (human, not fully specified; N-terminal biotin in the ELISA and HTRF binding assays (p-1487, p-1488); 125I on Tyr23 in Example 9 (p-1542); unlabelled in SPR. Letters unchanged.)
# T1 peptide: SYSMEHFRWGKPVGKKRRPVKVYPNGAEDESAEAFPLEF
# TEST NAME: cell-based or functional assay
RESULT TYPE: IC50, ACTH-induced cAMP, MC3R cells (nM)
Field format: number, assumed nM, no unit text.

The examples below pair each entry with its known result.
[
  {
    "BINDER": "Ab5 (antibody, V domains shown) VH: QSVEESGGRLVTPGTPLTLTCTVSGFSLSSYAMSWVRQAPGEGLEWIGIISDSGSTYYASWAKGRFTISKTSTTVDLKITSPTTEDTATYFCAREPEYGYDDYGDWVSDLWGQGTLVTVSS VL: DIVMTQTPASVSEPVGGTVTIKCQASQSISSYLSWYQQKPGQPPKLLIYRASTLASGVPSRFKGSGSGTQFTLTISDLECADAATYYCQSYYYSSSITYRNAFGGGTEVVVKR",
    "IC50, ACTH-induced cAMP, MC3R cells [nM]": 58.1
  },
  {
    "BINDER": "Ab2 (antibody, V domains shown) VH: QSVEESGGRLVTPGTPLTLTCTVSGFSLSKYDMIWVRQAPGKGLESIGIIYDDGDTYYASWAKGRFTISQTSTTVDLKIISPTTEDTATYFCVKGVSNIWGQGTLVTVSS VL: DVVMTQTPASVEAAVGGTVTIKCQASQSISNYLAWYQQKTGQPPKLLIYSASTLASGVPSRFKGSGSGTEFTLTISDLECADAATYYCQSYEGSSSSSYGVGFGGGTEVVVKR",
    "IC50, ACTH-induced cAMP, MC3R cells [nM]": 79
  },
  {
    "BINDER": "Ab7 (antibody, V domains shown, Full-length rabbit/human chimeric antibody, HEK-293) VH: QSVEESGGRLVTPGTPLTLTCTVSGFSLSSYAMSWVRQAPGEGLEWIGIISDSGSTYYASWAKGRFTISKTSTTVDLRITSPTTEDTATYFCAREPEYGYDDYGDWVSDLWGQGTLVTVSS VL: DIVMTQTPASVEAAVGGTVTIKCQASQSISDYLSWYQQKPGQPPKLLIYRASTLASGVPSRFKGSGSGTQFTLTISDLECADAATYYCQSYYYSSSITYRNAFGGGTEVVVKR",
    "IC50, ACTH-induced cAMP, MC3R cells [nM]": 64.2
  },
  {
    "BINDER": "Ab11 (antibody, V domains shown) VH: QSLEESGGRLVTPGTSLTLTCTASGFSLSAYDILWVRQAPGKGLESIGMMYDDGDTYYATWAKGRFIISRTSTTMDLKIISPTTEDTATYFCVKGVSNIWGQGTLVTVSS VL: DIVMTQIPASVEAAVGGTVTIKCQASQSIDSSLAWYQQKPGQPPKLLIYSASTLASGVPSRFKGSGSGTEFTLTIGDLECADAATYYCQSYDGSSSSYYGIGFGGGTEVVVKR",
    "IC50, ACTH-induced cAMP, MC3R cells [nM]": 108
  }
]

input: Fill in: IC50, ACTH-induced cAMP, MC3R cells of Ab3 (antibody, V domains shown) VH: QSLEESGGRLVTPGTPLTLTCTVSGSSLSNFDMIWVRQAPGKGLESIGIIYDFGSTYYASWAKGRFTISRTSSTTVDLKIISPTIEDTATYFCVKGVSNIWGQGTLVTVSS VL: DVVMTQTPASVEAAVGGTVTIKCQASEDISSNLAWYQQKLGQPPKLLIYSASTLASGVPSRFKGSGSGTEFTLAISDLECADAATYYCQSYDGSSSSSYGIGFGGGTEVVVKR is ___
output: 58.7

input: Fill in: IC50, ACTH-induced cAMP, MC3R cells of Ab6 (antibody, V domains shown) VH: QSVEESGGRLVTPGTPLTLTCTVSGFSLTDYAMSWVRQAPGEGLEWIGIISDSGSTYYASWAKGRFTFSKTSTTVDLRITSPTTEDTATYFCAREPEYGYDEYGDWVSDLWGPGTLVTVSS VL: DIVMTQTPASVEAAVGGAVTIKCQATQSIGNNLAWYQQKPGQPPKLLIYRASTLASGVPSRFKGSGSGTEFTLTISDLECADAATYYCQSYYYSSSITYHNAFGGGTEVVVKR is ___
output: 62.8
